Biological target: CD19 (UniProt P15391)
Test: cell-based or functional assay
Test readout: Average MFI Difference (MFI of ON - MFI of OFF) (BFP reporter; no CAR stimulation) (MFI)
Please give a number only; it is taken to be in MFI.

Field Average MFI Difference (MFI of ON - MFI of OFF) (BFP reporter; no CAR stimulation) (entry HRRCKHRTGK (receptor, part only) [hingeNotch STS variant with IL1R2 STS (…)] ) reads 980

Field Average MFI Difference (MFI of ON - MFI of OFF) (BFP reporter; no CAR stimulation) (entry RRRSKYSKAK (receptor, part only) [hingeNotch STS variant with EPHA3 STS (…)] ) reads 1290

Field Average MFI Difference (MFI of ON - MFI of OFF) (BFP reporter; no CAR stimulation) (entry RRKREH (receptor, part only) [hingeNotch STS variant with Notch3 STS (RRKREH)] ) reads 1190

Field Average MFI Difference (MFI of ON - MFI of OFF) (BFP reporter; no CAR stimulation) (entry KTKKQRKQMHNHLR (receptor, part only) [hingeNotch STS variant with NRG2 STS (…)] ) reads 1260

Field Average MFI Difference (MFI of ON - MFI of OFF) (BFP reporter; no CAR stimulation) (entry HPLRKRRKRKKK (receptor, part only) [hingeNotch STS variant with BTC STS (…)] ) reads 480
